test: Half life in Sprague-Dawley rat at 1 mg/kg, iv; format: ADME, organism-based; set-up: dose 1 mg/kg, route intravenous; conditions: in vivo
readout-label: half-life (min)

1) Cc1ccn(CCc2n[nH]c3ncccc23)c(=O)c1Oc1cc(Cl)cc(C#N)c1    45

###

Items are presented alongside their recorded IC95.
system: Human immunodeficiency virus; assay: Antiviral activity against Human immunodeficiency virus expressing RT K103N mutant infected in human MT4 cells by p24 antigen assay in the presence of 10% FBS; type: functional; conditions: Human immunodeficiency virus 1, MT4; read-out: CIC95
readout-label: IC95 (nM)

1) N#Cc1cc(Cl)cc(Oc2c(Cl)ccn(Cc3n[nH]c4ncccc34)c2=O)c1    2.9
2) N#Cc1cc(Cl)cc(Oc2c(Cl)c(Cl)cn(Cc3n[nH]c4ncccc34)c2=O)c1    11
3) N#Cc1cc(Cl)cc(Oc2c(Cl)ccn(Cc3n[nH]c4nc(N)ccc34)c2=O)c1    7.1
4) N#Cc1cc(Cl)cc(Oc2cc(Cc3n[nH]c4ncccc34)ccc2Cl)c1    211
5) Cc1ccn(CCc2n[nH]c3ncccc23)c(=O)c1Oc1cc(Cl)cc(C#N)c1    447
6) Cc1ccn(Cc2n[nH]c3ncccc23)c(=O)c1Oc1cc(Cl)cc(C#N)c1    10
7) N#Cc1cc(Cl)cc(Oc2cc(OCc3n[nH]c4nc(N)ccc34)ccc2Cl)c1    12

###

assay: Plasma clearance in Sprague-Dawley rat at 1 mg/kg, iv; type: ADME, organism-based; design: dose 1 mg/kg, route intravenous
readout-label: clearance (mL/min/kg)

1) Cc1ccn(CCc2n[nH]c3ncccc23)c(=O)c1Oc1cc(Cl)cc(C#N)c1    31

###

test system: MT4; assay: Cytotoxicity against human MT4 cells; type: cell-based
readout-label: Activity

1. CCc1nn(CCO)c(CC)c1Oc1cc(C#N)cc(C#N)c1 [LERSIVIRINE]    Non-toxic
2. Cc1cc(/C=C/C#N)cc(C)c1Nc1ccnc(Nc2ccc(C#N)cc2)n1 [RILPIVIRINE]    Non-toxic
3. N#Cc1cc(Cl)cc(Oc2c(Cl)ccn(Cc3n[nH]c4ncccc34)c2=O)c1    Non-toxic
4. N#Cc1cc(Cl)cc(Oc2cc(OCc3n[nH]c4nc(N)ccc34)ccc2Cl)c1    Non-toxic

###

test: Oral bioavailability in Sprague-Dawley rat at 10 mg/kg; type: ADME, organism-based; conditions: in vivo
Items are presented alongside their recorded bioavailability.
readout-label: bioavailability (%)

1. N#Cc1cc(Cl)cc(Oc2c(Cl)c(Cl)cn(Cc3n[nH]c4ncccc34)c2=O)c1    0
2. Cc1ccn(Cc2n[nH]c3ncccc23)c(=O)c1Oc1cc(Cl)cc(C#N)c1    8.5
3. N#Cc1cc(Cl)cc(Oc2c(Cl)ccn(Cc3n[nH]c4nc(N)ccc34)c2=O)c1    6
4. N#Cc1cc(Cl)cc(Oc2c(Cl)ccn(Cc3n[nH]c4ncccc34)c2=O)c1    57

###

test system: Rattus norvegicus; assay: Dose normalized AUC in Sprague-Dawley rat at 10 mg/kg, po; assay type: ADME, organism-based; set-up: dose 10 mg/kg, route oral; settings: in vivo
readout-label: AUC/dose (µM·h)

1. N#Cc1cc(Cl)cc(Oc2c(Cl)ccn(Cc3n[nH]c4nc(N)ccc34)c2=O)c1    0.15
2. Cc1ccn(Cc2n[nH]c3ncccc23)c(=O)c1Oc1cc(Cl)cc(C#N)c1    0.31
3. N#Cc1cc(Cl)cc(Oc2c(Cl)c(Cl)cn(Cc3n[nH]c4ncccc34)c2=O)c1    0
4. N#Cc1cc(Cl)cc(Oc2c(Cl)ccn(Cc3n[nH]c4ncccc34)c2=O)c1    1.6
